Values were extracted from ChEMBL document CHEMBL1132861.

- ASSAYED_TARGET: Glutamate receptor ionotropic, NMDA 1 (Homo sapiens)
- ASSAY_EXPLANATION: Compound was evaluated for its binding affinity for the glycine binding site on N-methyl-D-aspartate glutamate receptor by using [3H]MDL-105519 binding assay
REPORTED_PROPERTY: IC50 (nM)

LINE_NOTATION	UNIT_ANNOTATION	IC50
C[C@@H](NCc1cc(Br)cc2nc(O)c(O)nc12)P(=O)(O)O	nM	5
C[C@@H](NCc1cc(C#N)cc2[nH]c(=O)c(=O)[nH]c12)P(=O)(O)O	nM	76
C[C@@H](NCc1cc(I)cc2[nH]c(=O)c(=O)[nH]c12)P(=O)(O)O	nM	8

1: C[C@@H](NCc1cc(Cl)cc2nc(O)c(O)nc12)P(=O)(O)O
2: C[C@@H](NCc1cc(F)cc2[nH]c(=O)c(=O)[nH]c12)P(=O)(O)O
3: C[C@@H](NCc1cc([N+](=O)[O-])cc2[nH]c(=O)c(=O)[nH]c12)[P+]([O-])(O)O
**Q:** Give the ascending ranking of the items by reported IC50. Please list the labels in the order you were asked to rank them.
**A:** 1, 2, 3
